Provide the recorded growth inhibition for the entries that follow.
- test-details: NCI Yeast Anticancer Drug Screen. Data for the bub3 strain (AID 167)
- reported-conditions: S. cerevisiae bub3 mutant strain, at 50.0 µM (retest, dose inferred, filed as 5.0), hits give high values
Compounds without any hit were thinned out: in the full panel of roughly 79,000, 15% have a hit.
Numbers only, in %.

>>> result_number("CCOC(=O)C1C(c2cccc(OC)c2O)c2cc3c(cc2OC1(C)N1CCCC1)OCO3 (centres undefined)")
25
>>> result_number("O=C1C(SCCO)=C(SCCO)C(=O)c2ccccc21")
83
>>> result_number("O=[N+]([O-])c1ccc2nc(-c3ccccn3)[nH]c2c1")
16

Hello, I would appreciate it if you could give growth inhibition for each entry below.
1. COC(=O)C12CCC(C)(C)CC1C1=CCC3C4(C)CC(O)C(O)C(C)(C(=O)OC)C4CCC3(C)C1(CO)CC2 (centres undefined)
2. Cn1c(=O)c2c(ncn2CCCCOc2ccc3c(c2)[n+]([O-])nc(N)[n+]3[O-])n(C)c1=O
3. N#CC(C(=O)C(=O)Nc1ccc(Cl)cc1)c1c(Cl)cccc1Cl (centres undefined)
4. COc1ccc(C(=O)OC(=O)c2ccc(OC)cc2)cc1
5. CCCCCCCCCCCCCCCC(=O)NCCN(C)C
6. CC(CCC(=O)O)[C@H]1CCC2[C@@H]3CC(O)[C@@H]4CC(O)CC[C@]4(C)C3CC[C@@]21C (some centres undefined)
7. CCC12C=CCN3CCC4(c5cc(C(c6ccccn6)c6cc7ccccc7n6C)c(OC)cc5N(C)C4C(O)(C(=O)OC)C1OC(C)=O)C32 (centres undefined)
8. CN(C)CC(C)(CN(C)C)C(=O)/C=C/c1ccc(Cl)c(Cl)c1

Resp:
1. 99
2. 63
3. 6
4. 8
5. 99
6. 84
7. -3
8. 100

---

- test-details: NCI Yeast Anticancer Drug Screen. Data for the sgs1 mgt1 strain (AID 161);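 also: 0% = growth of cultures given vehicle only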
- reported-conditions: S. cerevisiae sgs1 mgt1 strain, at 50.0 µM, hits give high values
Compounds without any hit were thinned out: in the full panel of roughly 79,000, 15% have a hit.
Please mark met if the recorded growth inhibition is equal to or greater than 80%, and not met if it falls below.

Some solved entries appear below for comparison.
>>> label("O=C1C=C(OCC=C(C(F)(F)F)C(F)(F)F)C(=O)c2ccccc21")
"not met"
>>> label("CC(CCl)OC(=O)Nc1cccc(C(F)(F)F)c1 (stereo unspecified)")
"met"

Req: Exam item: decide whether the reported growth inhibition for c1ccc(CC(Cc2ccccc2)c2cccnc2)cc1 is at least 80%.
Resp: met

Req: Exam item: decide whether the reported growth inhibition for Cn1cc(CCC(=O)C2C=CC=CC2=NC(=O)CCCl)c2ccccc21 (stereo unspecified) is at least 80%.
Resp: not met

Req: Exam item: decide whether the reported growth inhibition for c1ccc(CN(CCCOc2ccccc2)Cc2ccccc2)cc1 is at least 80%.
Resp: not met

Req: Exam item: decide whether the reported growth inhibition for Cc1c2ccccc2c(CO)c2cc(F)c3ccccc3c12 is at least 80%.
Resp: met

---

- test-details: NCI Yeast Anticancer Drug Screen. Data for the sgs1 mgt1 strain (AID 161);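 also: 0% = growth of cultures given vehicle only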
- reported-conditions: S. cerevisiae sgs1 mgt1 strain, at 50.0 µM (retest, dose inferred, filed as 5.0), hits give high values
- Protocol: Growth inhibition of yeast strains with defined genetic alterations is measured as a screen for potential anti-cancer activity. Selected strains with alterations in DNA damage repair or cell cycle control were exposed to compounds and growth inhibition was measured relative to vehicle treated controls. The strain used in this assay is sgs1 mgt1
Compounds without any hit were thinned out: in the full panel of roughly 79,000, 15% have a hit. Activity calls are given as the source filed them. No stated cut-off is given here; in the data, active means growth inhibition above about 70%; inactive means the rest.
Provide the recorded growth inhibition for the entries that follow.

Some solved entries appear below for comparison.
>>> result("O=C(O)C(c1ccccc1)c1ccc(-c2ccccc2)cc1 (stereo unspecified)")
"80% (active)"
>>> result("CN(NC1OC(=O)c2ccccc21)c1ccc(C(F)(F)F)cc1[N+](=O)[O-] (stereo unspecified)")
"49% (inactive)"
>>> result("O=C1OC(c2ccccc2)(c2ccccc2)Cc2ccccc21")
"-16% (inactive)"
>>> result("Oc1ccc(C2CCc3ccccc32)cc1 (stereo unspecified)")
"98% (active)"
>>> result("CN(C)c1ccc(C=Nc2cncc3ccccc23)cc1")
"10% (inactive)"
>>> result("Cc1cc(C(O)(c2cc(C)c(O)c(C(=O)O)c2)c2cc(C)c(O)c(C(=O)O)c2)cc(C(=O)O)c1O")
"1% (inactive)"

Hello, I would appreciate it if you could give growth inhibition for each entry below.
1. O=[N+]([O-])c1ccc2c(c1)/C(=N\O)c1cc(Br)ccc1-2
2. O=C(O)COc1c(Cl)c(Cl)c(Cl)c(Cl)c1Cl.[Cu+2]
3. Cc1ccc2c(c1)-c1cc(C)ccc1C2(O)c1ccccc1

Resp:
1: 33% (inactive); 2: 99% (active); 3: 89% (active)

Hello, I would appreciate it if you could give growth inhibition for each entry below.
1. CCCCCCN(CCCCCC)CCCCCC
2. Clc1cc2c(c3ncccc13)OCN(CCc1ccccc1)C2

Resp:
-2% (inactive)
7% (inactive)

The origin of these recorded values is PubChem BioAssay (NCI).
